Target: Tryptase, from human lung (human, UniProt Q15661 31-275, limits assumed)
Sequence (Q15661 31-275 limits assumed): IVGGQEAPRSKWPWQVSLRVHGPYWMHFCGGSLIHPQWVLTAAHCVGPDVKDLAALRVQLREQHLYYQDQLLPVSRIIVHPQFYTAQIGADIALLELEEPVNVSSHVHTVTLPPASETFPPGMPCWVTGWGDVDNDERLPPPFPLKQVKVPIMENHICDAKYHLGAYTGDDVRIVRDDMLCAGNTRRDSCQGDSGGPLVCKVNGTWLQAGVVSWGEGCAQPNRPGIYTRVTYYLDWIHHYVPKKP
Assay: cell-based or functional assay
Bridges are numbered along the chain shown (N, C = ends). [ ]: non-standard residue; d: D form. Nle = CCCC[C@H](N)C(=O)O
Would you mind labelling by % inhibition at 100 µM? At or over 70% is Condition met, under is Condition not met.

See these solved cases before continuing.
{"columns": ["binder", "answerLabel"],
 "data": [
  ["cyclo([Nle]CTKSDPPICT[dP]P) (disulfide 2-10) [Example 42]", "Condition not met"],
  ["YCTKSDPPICY (HELM PEPTIDE1{Y.C.T.K.S.D.P.P.I.C.Y.[dP].P}$PEPTIDE1,PEPTIDE1,2:R3-10:R3|PEPTIDE1,PEPTIDE1,1:R1-13:R2$$$V2.0; SMILES CC[C@H](C)[C@@H]1NC(=O)[C@@H]2CCCN2C(=O)[C@@H]2CCCN2C(=O)[C@H](CC(=O)O)NC(=O)[C@H](CO)NC(=O)[C@H](CCCCN)NC(=O)[C@H]([C@@H](C)O)NC(=O)[C@@H]2CSSC[C@H](NC1=O)C(=O)N[C@@H](Cc1ccc(O)cc1)C(=O)N1CCC[C@@H]1C(=O)N1CCC[C@H]1C(=O)N[C@@H](Cc1ccc(O)cc1)C(=O)N2) [Example 26]", "Condition not met"],
  ["FCTKSDPPICS (HELM PEPTIDE1{F.C.T.K.S.D.P.P.I.C.S.[dA].D}$PEPTIDE1,PEPTIDE1,2:R3-10:R3|PEPTIDE1,PEPTIDE1,1:R1-13:R2$$$V2.0; SMILES CC[C@H](C)[C@@H]1NC(=O)[C@@H]2CCCN2C(=O)[C@@H]2CCCN2C(=O)[C@H](CC(=O)O)NC(=O)[C@H](CO)NC(=O)[C@H](CCCCN)NC(=O)[C@H]([C@@H](C)O)NC(=O)[C@@H]2CSSC[C@H](NC1=O)C(=O)N[C@@H](CO)C(=O)N[C@H](C)C(=O)N[C@@H](CC(=O)O)C(=O)N[C@@H](Cc1ccccc1)C(=O)N2) [Example 68]", "Condition not met"],
  ["cyclo(ICTKSDPAICR[dP]P) (disulfide 2-10) [Example 52]", "Condition met"]
]}

Please indicate if the recorded % inhibition at 100 µM for FCTKSDPPICD (HELM PEPTIDE1{F.C.T.K.S.D.P.P.I.C.D.[dP].P}$PEPTIDE1,PEPTIDE1,2:R3-10:R3|PEPTIDE1,PEPTIDE1,1:R1-13:R2$$$V2.0; SMILES CC[C@H](C)[C@@H]1NC(=O)[C@@H]2CCCN2C(=O)[C@@H]2CCCN2C(=O)[C@H](CC(=O)O)NC(=O)[C@H](CO)NC(=O)[C@H](CCCCN)NC(=O)[C@H]([C@@H](C)O)NC(=O)[C@@H]2CSSC[C@H](NC1=O)C(=O)N[C@@H](CC(=O)O)C(=O)N1CCC[C@@H]1C(=O)N1CCC[C@H]1C(=O)N[C@@H](Cc1ccccc1)C(=O)N2) [Example 2] meets or exceeds 70%.
Condition not met

Exam item: decide whether the reported % inhibition at 100 µM for ICTKSDPPYCR (HELM PEPTIDE1{I.C.T.K.S.D.P.P.Y.C.R.[dP].P}$PEPTIDE1,PEPTIDE1,2:R3-10:R3|PEPTIDE1,PEPTIDE1,1:R1-13:R2$$$V2.0; SMILES CC[C@H](C)[C@@H]1NC(=O)[C@@H]2CCCN2C(=O)[C@H]2CCCN2C(=O)[C@H](CCCNC(=N)N)NC(=O)[C@@H]2CSSC[C@H](NC1=O)C(=O)N[C@@H]([C@@H](C)O)C(=O)N[C@@H](CCCCN)C(=O)N[C@@H](CO)C(=O)N[C@@H](CC(=O)O)C(=O)N1CCC[C@H]1C(=O)N1CCC[C@H]1C(=O)N[C@@H](Cc1ccc(O)cc1)C(=O)N2) [Example 56] is at least 70%.
Condition met

Entry FCTKSDPPICY (HELM PEPTIDE1{F.C.T.K.S.D.P.P.I.C.Y.[dP].P}$PEPTIDE1,PEPTIDE1,2:R3-10:R3|PEPTIDE1,PEPTIDE1,1:R1-13:R2$$$V2.0; SMILES CC[C@H](C)[C@@H]1NC(=O)[C@@H]2CCCN2C(=O)[C@@H]2CCCN2C(=O)[C@H](CC(=O)O)NC(=O)[C@H](CO)NC(=O)[C@H](CCCCN)NC(=O)[C@H]([C@@H](C)O)NC(=O)[C@@H]2CSSC[C@H](NC1=O)C(=O)N[C@@H](Cc1ccc(O)cc1)C(=O)N1CCC[C@@H]1C(=O)N1CCC[C@H]1C(=O)N[C@@H](Cc1ccccc1)C(=O)N2) [Example 5] : is its % inhibition at 100 µM no less than 70%?
Condition met

Threshold query (% inhibition at 100 µM >= 70%) on XCTKSDPPICY (HELM PEPTIDE1{[Nle].C.T.K.S.D.P.P.I.C.Y.[dP].P}$PEPTIDE1,PEPTIDE1,2:R3-10:R3|PEPTIDE1,PEPTIDE1,1:R1-13:R2$$$V2.0; SMILES CCCC[C@@H]1NC(=O)[C@@H]2CCCN2C(=O)[C@H]2CCCN2C(=O)[C@H](Cc2ccc(O)cc2)NC(=O)[C@@H]2CSSC[C@H](NC1=O)C(=O)N[C@@H]([C@@H](C)O)C(=O)N[C@@H](CCCCN)C(=O)N[C@@H](CO)C(=O)N[C@@H](CC(=O)O)C(=O)N1CCC[C@H]1C(=O)N1CCC[C@H]1C(=O)N[C@@H]([C@@H](C)CC)C(=O)N2) [Example 44]
Condition not met

Please check the record RETKSDPPIRF (HELM PEPTIDE1{R.E.T.K.S.D.P.P.I.R.F.[dP].P}$PEPTIDE1,PEPTIDE1,1:R1-13:R2$$$V2.0; SMILES CC[C@H](C)[C@@H]1NC(=O)[C@@H]2CCCN2C(=O)[C@@H]2CCCN2C(=O)[C@H](CC(=O)O)NC(=O)[C@H](CO)NC(=O)[C@H](CCCCN)NC(=O)[C@H]([C@@H](C)O)NC(=O)[C@H](CCC(=O)O)NC(=O)[C@H](CCCNC(=N)N)NC(=O)[C@@H]2CCCN2C(=O)[C@H]2CCCN2C(=O)[C@H](Cc2ccccc2)NC(=O)[C@H](CCCNC(=N)N)NC1=O) [Example 7] and state if its % inhibition at 100 µM is at or above 70%.
Condition not met
